Answer each item with its documented activation factor.
target: Intestinal-type alkaline phosphatase (Homo sapiens); test: human IAP activators, primary screen, biochemical, luminescence, uHTS (AID 2524); conditions: purified human IAP, CDP-Star luminescence, 30 min; at 10 µM; active compounds read high; 1 = vehicle-only enzyme, 0 = enzyme-free background
About 540 (0.16%) of roughly 330,000 compounds were called active. The list comes from a sample in which actives are over-represented; it also holds close analogues and randomly drawn compounds.
Give the figure by itself; no unit, no explanation.

Quick one: activation factor for Cn1cnnc1SCC(=O)NNC(=O)COc1ccc(Br)cc1 ?
1.79

Please give the result for Oc1ccc(-c2cccc(-c3ccc(O)cc3)c2)cc1 too.
1.01

Same read-out for COc1ccc(-n2nnc3c(=O)n(CC(=O)N4CCC(Cc5ccccc5)CC4)cnc32)cc1 ?
1.02

Also, COc1ccc(C(=O)N(Cc2ccccc2)c2ccc(C)cc2)cc1S(=O)(=O)N1CCOCC1 please.
0.94

Check COc1ccc(NS(=O)(=O)c2ccc(Oc3c(C#N)cccc3C#N)cc2)cc1 too.
1.1

Note, next up: CC(C)c1ccc(NC2CCCN(C(=O)c3ccncc3)C2)cc1 (configuration not stated)
0.926

What do you have for CCOc1ccc(NC(=O)CSc2nncn2C)cc1 ?
3.82
